Test System: IL-17A (agonist in the IL-17RA/IL17RC dimerization assay) (UniProt Q16552 24-155)
Sequence (Q16552 24-155 limits assumed): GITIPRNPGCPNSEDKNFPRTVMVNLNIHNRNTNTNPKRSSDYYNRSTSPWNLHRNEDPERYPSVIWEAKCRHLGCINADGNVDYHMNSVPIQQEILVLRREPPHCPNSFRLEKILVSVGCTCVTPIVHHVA
Assay Explanation: cell-based or functional assay
Readout Label: IC50 in IL-17RA/IL7RC dimerization assay

Which IC50 in IL-17RA/IL7RC dimerization assay value belongs to Ac-GGKETWWETWVMVTIPADLYEWIEE-NH2 [peptide of SEQ ID NO: 33] ?
< 1 µM

Field entry: Ac-VRVTVPQELWEWVRR-NH2 [peptide of SEQ ID NO: 235]
< 10 µM

Field entry: Ac-IHVTIPADLWDWGNK-NH2 [peptide of SEQ ID NO: 215]
< 10 µM

Field entry: Ac-IRVTIPADLWDWINK-NH2 [peptide of SEQ ID NO: 162]
< 10 µM

Sourced from patent US20220112244A1
